Item-by-item account of relative viability
System: LCLC-97TM1
Test: relative viability (nuclei count vs DMSO), 5 days (fraction); higher = more cells survive
Conditions: first compound 0.01581 µM
The answer should be a number; do not append a unit.

Below are worked cases with known answers.
molecule: Nc1ccn([C@@H]2O[C@H](CO)[C@@H](O)[C@@H]2O)c(=O)n1 [Cytarabine] + CS(=O)(=O)N1CCN(Cc2cc3nc(-c4cccc5[nH]ncc45)nc(N4CCOCC4)c3s2)CC1 [Pictilisib] (partner 1 µM)
relative viability: 0.177
--
molecule: COc1cc2nccc(Oc3ccc(NC(=O)Nc4cc(C)on4)c(Cl)c3)c2cc1OC [Tivozanib] + NC(=O)Nc1cc(-c2cccc(F)c2)sc1C(=O)N[C@H]1CCCNC1 [AZD7762] (partner 0.2 µM)
relative viability: 0.274

The molecule COc1cc2nccc(Oc3ccc(NC(=O)Nc4cc(C)on4)c(Cl)c3)c2cc1OC [Tivozanib] + Cc1nc(Nc2ncc(C(=O)Nc3c(C)cccc3Cl)s2)cc(N2CCN(CCO)CC2)n1 [Dasatinib] (partner 0.075 µM) , when measured on LCLC-97TM1, yielded relative viability of 0.855

Noted relative viability for Nc1ccn([C@@H]2O[C@H](CO)[C@@H](O)[C@@H]2O)c(=O)n1 [Cytarabine] + Cc1nc(Nc2ncc(C(=O)Nc3c(C)cccc3Cl)s2)cc(N2CCN(CCO)CC2)n1 [Dasatinib] (partner 0.075 µM) , tested on LCLC-97TM1: 0.839

----------
Test system: NCI-H596
Experiment: relative viability (nuclei count vs DMSO), 5 days (fraction); higher = more cells survive
Details: first compound 0.08 µM
testReadout: relative viability
Write no unit; give the number alone.

These solved cases illustrate the format of a correct answer.
molecule: O=c1[nH]c2ccccc2n1C1CCN(CCCC(c2ccc(F)cc2)c2ccc(F)cc2)CC1 [Pimozide] + COc1cc2c(Oc3ccc(NC(=O)C4(C(=O)Nc5ccc(F)cc5)CC4)cc3F)ccnc2cc1OCCCN1CCOCC1 [Foretinib] (partner 0.25 µM)
measuredOn: NCI-H596
relative viability: 0.883
--
molecule: O=c1[nH]c2ccccc2n1C1CCN(CCCC(c2ccc(F)cc2)c2ccc(F)cc2)CC1 [Pimozide] + Cc1nc(Nc2ncc(C(=O)Nc3c(C)cccc3Cl)s2)cc(N2CCN(CCO)CC2)n1 [Dasatinib] (partner 0.075 µM)
measuredOn: NCI-H596
relative viability: 0.565
--
molecule: O=c1[nH]c2ccccc2n1C1CCN(CCCC(c2ccc(F)cc2)c2ccc(F)cc2)CC1 [Pimozide] + Cc1nc(NC(=O)N2CCC[C@H]2C(N)=O)sc1-c1ccnc(C(C)(C)C(F)(F)F)c1 [Alpelisib] (partner 2 µM)
measuredOn: NCI-H596
relative viability: 0.481
--
molecule: O=c1[nH]c2ccccc2n1C1CCN(CCCC(c2ccc(F)cc2)c2ccc(F)cc2)CC1 [Pimozide] + CC(=O)Nc1cccc(-n2c(=O)n(C3CC3)c(=O)c3c(Nc4ccc(I)cc4F)n(C)c(=O)c(C)c32)c1 [Trametinib] (partner 0.02 µM)
measuredOn: NCI-H596
relative viability: 0.83
--
molecule: O=c1[nH]c2ccccc2n1C1CCN(CCCC(c2ccc(F)cc2)c2ccc(F)cc2)CC1 [Pimozide] + NC(=O)Nc1cc(-c2cccc(F)c2)sc1C(=O)N[C@H]1CCCNC1 [AZD7762] (partner 0.2 µM)
measuredOn: NCI-H596
relative viability: 1.17
--
molecule: O=c1[nH]c2ccccc2n1C1CCN(CCCC(c2ccc(F)cc2)c2ccc(F)cc2)CC1 [Pimozide] + Cc1cc(Nc2cc(N3CCN(C)CC3)nc(Sc3ccc(NC(=O)C4CC4)cc3)n2)n[nH]1 [Tozasertib] (partner 0.1 µM)
measuredOn: NCI-H596
relative viability: 0.929
--
molecule: Cc1cnc(-c2cnc(NCCNc3ccc(C#N)cn3)nc2-c2ccc(Cl)cc2Cl)[nH]1 + CC(=O)Nc1cccc(-n2c(=O)n(C3CC3)c(=O)c3c(Nc4ccc(I)cc4F)n(C)c(=O)c(C)c32)c1 [Trametinib] (partner 0.02 µM)
measuredOn: NCI-H596
relative viability: 0.877

For reference, reported relative viability for Cc1cnc(-c2cnc(NCCNc3ccc(C#N)cn3)nc2-c2ccc(Cl)cc2Cl)[nH]1 + Nc1nc2[nH]cc(CCc3ccc(C(=O)N[C@@H](CCC(=O)O)C(=O)O)cc3)c2c(=O)[nH]1 [Pemetrexed] (partner 0.2 µM) stands at 0.531
